Provide the reported per cent of control of each item.
- Test system: LCK (mouse)
- Test settings: compound 10.0 µM; accession and sequence are those of the human protein
Value expressed in %; do not type the unit.

Entry `COC(=O)Nc1ccc(-c2nc(N3CCOCC3)c3cnn(C4CCN(C(=O)OC)CC4)c3n2)cc1` , per cent of control reported as 91

per cent of control reading for `CCC(=O)N1CCN(c2ccc(-n3c(=O)ccc4cnc5ccc(-c6cnc7ccccc7c6)cc5c43)cc2C(F)(F)F)CC1` : 78

Just so you know, measured per cent of control for `COc1ccc(-c2ccc3c(N4CCOCC4)nc(N4C[C@@H](C)O[C@@H](C)C4)nc3n2)cc1CO` came out at 104

For reference, reported per cent of control for `CC(C)n1nc(-c2cc3cc(O)ccc3[nH]2)c2c(N)ncnc21` stands at 4

All figures here come from the kinase profiling compilation of Christmann-Franck et al. (2016).
